Entry source: the EternaBench riboswitch data

Test system: MS2 coat protein
assay.info: apparent Kd, MS2 coat protein; higher = weaker binding; RNA-MaP array; FMN 200 µM where present
test.context: designed as: ON switch for flavin mononucleotide; no ligand
Assign 1 (yes) whenever apparent Kd does not fall below 100 nM; assign 0 (no) whenever it does.

sequence.chain: AAAAGGCAUCGUGACAUGAGGAUCACCCAUGUGAUUUGCUCACAGGAUAUCAUGCUCACGGAGCCUGAGAAGGGUGAAAGCUAA
label: 0 (no)
//
sequence.chain: GCCCGACAUGAGGAUCACCCAUGUGGGAAACCGCGAGGAUAUCCGGGCCCGAAAGGGCCCGGAGAAGGCGCCGGGC
label: 0 (no)
//
sequence.chain: GUUUGUUAUUAGAAGGUGCCAGCGAGAGCUGCACAUGAGGAUCACCCAUGUUGUCGGUGACGACGCAAGGAUAUGGUGGUGGAU
label: 1 (yes)
//
sequence.chain: CAGGAGAACACAGGAUAUCCGUAAGACAUGAGGAUCACCCAUGUUUGUGGCCCGCCAGGGCUGACGGAGAAGGGUGACUCGCAC
label: 0 (no)

# input Decide: apparent Kd of GUGGACGUCGUAGGAUAUGUAGGAUAUUCCUACAUGAGGAUCACCCAUGUUUACAUGGAAGAAGGACAGAAGGACGAUGUCCAG >= 100 nM?
# output 1 (yes)

# input apparent Kd >= 100 nM for GCAGGAAAACUUGGUACAUGAGGAUCACCCAUGUAAAGCGGCAGAAGGGCGAUGUUAUGUAUAACGCAGGAUAUGCAGCGGAAU ?
# output 0 (no)

# input Does the reported apparent Kd for UGGAUCAAUACAGGAUAUGGUGACGCACAUGAGGAUCACCCAUGUCCGCAGCGUGCUAAGCACGCCCAGAAGGGUAUUGAUUCG fall at or above the 100 nM mark?
# output 1 (yes)

----------
Test system: MS2 coat protein
assay.info: apparent Kd, MS2 coat protein; higher = weaker binding; RNA-MaP array; FMN 200 µM where present
test.context: designed as: OFF switch for flavin mononucleotide; no ligand
Reported apparent Kd is given for each of the following sequences.
Supply the numeric figure in nM, leaving out any unit text.

sequence.chain: AUUAAGCAGCAGGAUAUAAUUAUCUGAAGGUGGUUAGAAGGGCUGACAUGAGGAUCACCCAUGUGCUCUUCGUG
readout.name: apparent Kd
measured.value: 16.2

Lab note: GUCAGCUCGUGAGGAUAUACAACACUGCUUCGGCAGUGUAUUAAGAUUACAUGAGGAUCACCCAUGUAGAAGGCACGAGCUGAU gave apparent Kd of 5.01

The sequence UCUUAUUGCAAGGAUAUGCUUUUUAUUUCUUUUGCAGAAGGUGCAACAUGAGGAUCACCCAUGUUUCCGGGCAU showed apparent Kd equal to 16

Please fill in: apparent Kd reported for GGGCUGUCAGGAUAUCUCGGGCUCGGGUAAACUCGGGCUCGGGAGAAGGGACAUGAGGAUCACCCAUGUGGCCC = 30.4

AUUCAGCGAGGAUAUACAGGUUCUGGGUGAGGCUCGGCGAGACAUGAGGAUCACCCAUGUAGAAGGUGCUAGCC has a reported apparent Kd of 341

apparent Kd for AGUAUGCGGCAGGAUAUCCAUCCGCGAAAAGGUGGAGAAGGGCUGACAUGAGGAUCACCCAUGUGCGUCUUGUA is 29.7

Quick note, apparent Kd for AUUAGUAUCUAGGAUAUCUAGUACAUAGUAUCUAGAGAAGGAGAUACAUGAGGAUCACCCAUGUUCUGUGUUCU landed at 27.2
